Field: HepG2 TC50. Provide a value for each of the compounds that follow.
System: HepG2 cells
Assay: Drug toxicity to HepG2 cells (MTT)
Type: cell-based
Settings: HepG2 cells, 48 hours incubation, MTT

compound	system	assay-endpoint	reported-measurement
C[C@@H]1CNCCN1C(=O)c1ccc(-c2cccc(N3CCOCC3)c2)cc1N	HepG2 cells	HepG2 TC50	> 40 µM
O=S(=O)(c1ccc(-c2ccc3nccc(Nc4ncccn4)c3c2)cc1)N1CCOCC1	HepG2 cells	HepG2 TC50	> 34 µM
C[S+]([O-])CCNc1ncc(-c2ccc3c(Nc4cnccn4)ccnc3c2)cn1 (stereo not drawn)	HepG2 cells	HepG2 TC50	> 37 µM
CN1CCCN(c2ncc(-c3ccc4nccc(Nc5ccncn5)c4c3)cn2)CC1	HepG2 cells	HepG2 TC50	> 37 µM
O=S(=O)(c1ccc(-c2ccc3nccc(Nc4ccncn4)c3c2)cc1)N1CCOCC1	HepG2 cells	HepG2 TC50	> 34 µM

Batch request: HepG2 TC50 for each of the following compounds.
1. CN1CCCN(c2ncc(-c3ccc4nccc(Nc5cnccn5)c4c3)cn2)CC1
2. CN(C)CCN(C)c1ncc(-c2ccc3c(Nc4cnccn4)ccnc3c2)cn1

Resp:
1: > 37 µM; 2: > 38 µM

Batch request: HepG2 TC50 for each of the following compounds.
1. C[C@@H]1CNCCN1C(=O)c1ccc(-c2cnc(N3CCCN(C)CC3)nc2)cc1N
2. CS(=O)(=O)N1CCN(c2ncc(-c3ccc4c(Nc5cnccn5)ccnc4c3)cn2)CC1

Resp:
> 37 µM
> 33 µM
